assay_target: BRD4(BD1) (Homo sapiens, UniProt O60885)
Construct: a BRD4(BD1) synthetic gene that includes a TEV cleavage site was purchased from LifeTechnology; made in house
protocol: HTRF assay, disruption of bromodomain/histone peptide interaction
Type: binding
conditions: Table 3 selectivity profile; mean ± SD of three experiments; read-out: IC50 (μM) BRD4(BD1)
Provide the reported IC50 of each item.
Please reply with the bare figure in µM and do not write the unit itself.

Fill blank: measured IC50 of the compound CCn1c(CSc2n[nH]c(N)n2)nc2c1c(=O)[nH]c(=O)n2Cc1ccc(Cl)cc1 [Compound 22a] is ____.
26.4

And CCCCc1c(C)nc2nc(SCc3nc4c(c(=O)[nH]c(=O)n4Cc4ccc(Cl)cc4)n3CC)nn2c1C [Compound 27b] ?
20.4

Also, CCCCc1c(C)nc2nc(SCc3nc4c(c(=O)[nH]c(=O)n4CCCC)n3CC)nn2c1C [Compound 26b] please.
5

Same question for `CCn1cnc2c1c(=O)[nH]c(=O)n2Cc1ccc(Cl)cc1` please.
2.6

Same thing, different compound: `CCCCn1c(=O)[nH]c(=O)c2c1ncn2CC`
13
